// reported Drug uptake for each item listed
# protocol summary: Cellular uptake in human OVCAR3 cell cytoplasm assessed as per 10^3 cells after 1 hr by gamma counting
# Format: ADME, cell-based
# protocol conditions: ovcar-3, 1 h, 1 h
Report the value in cpm with no unit label.

Study these solved cases before continuing.
{"columns": ["compound", "unit string", "Drug uptake"],
 "data": [
  ["O=c1[nH]c(=O)n([C@H]2C[C@H](O)[C@@H](COP3(=O)OCc4ccccc4O3)O2)cc1[125I] (stereo in doubt; form 2)", "cpm", 14.8],
  ["CC(C)(C)c1cc(C(C)(C)C)c2c(c1F)COP(=O)(OC[C@H]1O[C@@H](n3cc([125I])c(=O)[nH]c3=O)C[C@@H]1O)O2 (stereo in doubt)", "cpm", 87.3]
]}

Exam item: Drug uptake for Cc1cccc2c1OP(=O)(OC[C@H]1O[C@@H](n3cc([125I])c(=O)[nH]c3=O)C[C@@H]1O)OC2 (stereo in doubt; 7b) ?
Marked response: 11.7

###

# protocol summary: Cellular uptake in human OVCAR3 cell nucleus assessed as per 10^3 cells after 1 hr by gamma counting
# Assay type: ADME, cell-based
# protocol conditions: ovcar-3, 1 h
The entries below are paired with their reported Drug uptake.
Could you give me the number in cpm? Just the number is fine.

Before answering, review these 4 worked examples.
{"columns": ["compound", "Drug uptake [cpm]"],
 "data": [
  ["CC(C)(C)c1cc(C(C)(C)C)c2c(c1F)COP(=O)(O[C@H]1C[C@H](n3cc([125I])c(=O)[nH]c3=O)O[C@@H]1CO)O2 (stereo not given in full)", 4.3],
  ["O=c1[nH]c(=O)n([C@H]2C[C@H](OP3(=O)OCc4ccccc4O3)[C@@H](COP3(=O)OCc4ccccc4O3)O2)cc1[125I] (stereo not given in full)", 6.4],
  ["O=c1[nH]c(=O)n([C@H]2C[C@H](OP3(=O)OCc4ccccc4O3)[C@@H](CO)O2)cc1[125I] (stereo not given in full)", 2.1],
  ["Cc1cccc2c1OP(=O)(O[C@H]1C[C@H](n3cc([125I])c(=O)[nH]c3=O)O[C@@H]1CO)OC2 (stereo not given in full)", 2]
]}

Kindly consider the entry below.
Exam item: Endpoint output: Drug uptake of Cc1cccc2c1OP(=O)(OC[C@H]1O[C@@H](n3cc([125I])c(=O)[nH]c3=O)C[C@@H]1OP1(=O)OCc3cccc(C)c3O1)OC2 (stereo not given in full) . Value?
Marked response: 6

###

# experimental target: Cholinesterase (Homo sapiens)
# Sequence (P06276 whole entry): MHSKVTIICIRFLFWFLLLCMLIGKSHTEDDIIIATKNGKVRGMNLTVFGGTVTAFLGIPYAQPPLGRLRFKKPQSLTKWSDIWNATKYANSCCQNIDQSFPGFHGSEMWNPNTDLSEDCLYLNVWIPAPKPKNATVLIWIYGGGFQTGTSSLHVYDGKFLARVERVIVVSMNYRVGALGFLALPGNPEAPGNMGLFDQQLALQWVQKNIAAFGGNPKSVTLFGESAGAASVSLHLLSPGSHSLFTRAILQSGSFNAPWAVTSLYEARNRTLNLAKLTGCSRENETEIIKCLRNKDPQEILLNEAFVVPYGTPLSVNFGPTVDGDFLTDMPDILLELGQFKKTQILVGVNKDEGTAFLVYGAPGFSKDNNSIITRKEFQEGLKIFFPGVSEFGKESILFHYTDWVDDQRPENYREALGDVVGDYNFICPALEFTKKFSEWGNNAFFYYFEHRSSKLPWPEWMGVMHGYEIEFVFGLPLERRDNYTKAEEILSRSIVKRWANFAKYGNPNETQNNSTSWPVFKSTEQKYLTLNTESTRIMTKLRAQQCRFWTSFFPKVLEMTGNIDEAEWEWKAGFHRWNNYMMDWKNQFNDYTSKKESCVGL
# protocol summary: Inhibition of human BChE after 30 mins by microplate reader method
pIC50: −log10 of the molar value.
Use 1 when the recorded pIC50 is no lower than 7; use 0 when it is lower.

{"columns": ["molecule", "label value"],
 "data": [
  ["CC(C)(C)c1cc(C(C)(C)C)c2c(c1F)COP(=O)(OC[C@H]1O[C@@H](n3cc(I)c(=O)[nH]c3=O)C[C@@H]1O)O2 (stereo in doubt; form 2)", 1],
  ["Cc1cn([C@H]2C[C@H](F)[C@@H](COP3(=O)OCc4c(F)c(C(C)(C)C)cc(C(C)(C)C)c4O3)O2)c(=O)[nH]c1=O (stereo in doubt; form 2)", 1],
  ["Cc1cn([C@H]2C[C@H](O)[C@@H](COP3(=O)OCc4c(F)c(C(C)(C)C)cc(C(C)(C)C)c4O3)O2)c(=O)[nH]c1=O (stereo in doubt; form 1)", 0],
  ["O=c1[nH]c(=O)n([C@H]2C[C@H](O)[C@@H](COP3(=O)OCc4ccccc4O3)O2)cc1I (stereo in doubt; form 2)", 1]
]}

Okay, now this molecule:
Exam item: Tell me whether pIC50 is at least 7 here: Cc1cn([C@H]2C[C@H](O)[C@@H](COP3(=O)OCc4c(F)c(C(C)(C)C)cc(C(C)(C)C)c4O3)O2)c(=O)[nH]c1=O (stereo in doubt; form 2)
Marked response: 0

###

# protocol summary: Half life of the compound in phosphate buffer at pH 7.3
# Format: physicochemical
The reader will find reported t1/2 values listed item by item below.
Your answer should be a plain number; it is taken to be in h.

Exam item: Given the entry CC(C)(C)c1cc(C(C)(C)C)c2c(c1F)COP(=O)(OC[C@H]1O[C@@H](n3cc([125I])c(=O)[nH]c3=O)C[C@@H]1F)O2 (stereo in doubt; form 1) , report its measured t1/2.
Marked response: 38.5

Exam item: Would you mind doing CC(C)(C)c1cc(C(C)(C)C)c2c(c1F)COP(=O)(OC[C@H]1O[C@@H](n3cc(I)c(=O)[nH]c3=O)C[C@@H]1F)O2 (stereo in doubt; form 2) as well?
Marked response: 52

Exam item: Same question, Cc1cccc2c1OP(=O)(O[C@H]1C[C@H](n3cc(I)c(=O)[nH]c3=O)O[C@@H]1CO)OC2 (stereo in doubt; form 2) this time
Marked response: 14.2

Exam item: Record: O=c1[nH]c(=O)n([C@H]2C[C@H](OP3(=O)OCc4ccccc4O3)[C@@H](CO)O2)cc1I (stereo in doubt; form 2)
Marked response: 7.1

Exam item: Lookup CC(C)(C)c1cc(C(C)(C)C)c2c(c1F)COP(=O)(O[C@H]1C[C@H](n3cc(I)c(=O)[nH]c3=O)O[C@@H]1CO)O2 (stereo in doubt; form 1)
Marked response: 15.1

Exam item: Likewise for O=c1[nH]c(=O)n([C@H]2C[C@H](O)[C@@H](COP3(=O)OCc4ccccc4O3)O2)cc1[125I] (stereo in doubt; form 2) ?
Marked response: 7.6

Exam item: Same again, this time with CC(C)(C)c1cc(C(C)(C)C)c2c(c1F)COP(=O)(OC[C@H]1O[C@@H](n3cc(I)c(=O)[nH]c3=O)C[C@@H]1O)O2 (stereo in doubt; form 1)
Marked response: 47.9

Exam item: Also check CC(C)(C)c1cc(C(C)(C)C)c2c(c1F)COP(=O)(OC[C@H]1O[C@@H](n3cc(I)c(=O)[nH]c3=O)C[C@@H]1F)O2 (stereo in doubt; form 1)
Marked response: 39.6

Exam item: And the next one, O=c1[nH]c(=O)n([C@H]2C[C@H](OP3(=O)OCc4ccccc4O3)[C@@H](CO)O2)cc1I (stereo in doubt; form 1) ?
Marked response: 5.3

Exam item: Quick one: Cc1cccc2c1OP(=O)(O[C@H]1C[C@H](n3cc(I)c(=O)[nH]c3=O)O[C@@H]1CO)OC2 (stereo in doubt; form 1)
Marked response: 12.2

Exam item: Also Cc1cccc2c1OP(=O)(OC[C@H]1O[C@@H](n3cc([125I])c(=O)[nH]c3=O)C[C@@H]1O)OC2 (stereo in doubt; form 2) ?
Marked response: 25

Exam item: Would you kindly repeat that for CC(C)(C)c1cc(C(C)(C)C)c2c(c1F)COP(=O)(OC[C@H]1O[C@@H](n3cc([125I])c(=O)[nH]c3=O)C[C@@H]1F)O2 (stereo in doubt; form 2) ?
Marked response: 51.5

Exam item: What would you report for Cc1cccc2c1OP(=O)(OC[C@H]1O[C@@H](n3cc([125I])c(=O)[nH]c3=O)C[C@@H]1O)OC2 (stereo in doubt; form 1) ?
Marked response: 21.2

###

# protocol summary: Chemical stability of the compound in phosphate buffer at pH 7.3
# Assay type: physicochemical
recorded endpoint: K

// worked examples, K included
{"columns": ["compound", "K"],
 "data": [
  ["Cc1cccc2c1OP(=O)(O[C@H]1C[C@H](n3cc(I)c(=O)[nH]c3=O)O[C@@H]1CO)OC2 (stereo in doubt; form 2)", "8.13 ×10⁻⁴ /min"],
  ["CC(C)(C)c1cc(C(C)(C)C)c2c(c1F)COP(=O)(OC[C@H]1O[C@@H](n3cc(I)c(=O)[nH]c3=O)C[C@@H]1O)O2 (stereo in doubt; form 1)", "2.41 ×10⁻⁴ /min"],
  ["Cc1cccc2c1OP(=O)(O[C@H]1C[C@H](n3cc(I)c(=O)[nH]c3=O)O[C@@H]1CO)OC2 (stereo in doubt; form 1)", "9.46 ×10⁻⁴ /min"]
]}

Now consider the entry below.
Exam item: Param item = CC(C)(C)c1cc(C(C)(C)C)c2c(c1F)COP(=O)(O[C@H]1C[C@H](n3cc(I)c(=O)[nH]c3=O)O[C@@H]1CO)O2 (stereo in doubt; form 2) ; retrieve measured K.
Marked response: 6.67 ×10⁻⁴ /min

###

# protocol summary: Cellular uptake in human OVCAR3 cell cytoplasm assessed as per 10^3 cells after 1 hr by gamma counting
# Format: ADME, cell-based
# protocol conditions: ovcar-3, 1 h, 1 h
Reported Drug uptake values for the following molecules.
Answer with the value and then the unit.

{"columns": ["molecule", "Drug uptake"],
 "data": [
  ["Cc1cccc2c1OP(=O)(OC[C@H]1O[C@@H](n3cc([125I])c(=O)[nH]c3=O)C[C@@H]1O)OC2 (stereo in doubt; form 2)", "13 cpm"],
  ["CC(C)(C)c1cc(C(C)(C)C)c2c(c1F)COP(=O)(OC[C@H]1O[C@@H](n3cc([125I])c(=O)[nH]c3=O)C[C@@H]1O)O2 (stereo in doubt; 8b)", "88.3 cpm"]
]}

Exam item: Give the measured Drug uptake of O=c1[nH]c(=O)n([C@H]2C[C@H](O)[C@@H](COP3(=O)OCc4ccccc4O3)O2)cc1[125I] (stereo in doubt; 6b) .
Marked response: 20.2 cpm
